# Tested on: PPARg:RXRa 270nM:90nM, anti-RXR (NR concentration 270 nM, RXRa partner concentration 90 nM)
# EXPERIMENT_DESCRIPTION: PBM binding z-score (relative to random genomic background probes); higher = stronger binding; sequences stand for … in GC…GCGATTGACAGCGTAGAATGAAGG
Entry class follows PBM binding z-score: bin 1 (below 1), bin 2 (1 to below 3), bin 3 (3 or more)

| ORDERED_RESIDUES | CATEGORY_LABEL |
| --- | --- |
| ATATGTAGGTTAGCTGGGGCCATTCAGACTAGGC | bin 2 |
| TCTTGTAGATCAACGGGAGGTTAAGAAAGATCGA | bin 2 |
| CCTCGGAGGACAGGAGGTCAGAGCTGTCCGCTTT | bin 1 |
| ACATACGGGTCAACGAGGTTATAGCACGCGTATA | bin 3 |
| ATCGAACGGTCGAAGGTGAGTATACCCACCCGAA | bin 2 |
| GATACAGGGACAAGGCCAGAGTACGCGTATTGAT | bin 1 |
| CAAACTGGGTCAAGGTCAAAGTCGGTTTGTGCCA | bin 3 |
| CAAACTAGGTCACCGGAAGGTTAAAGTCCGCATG | bin 3 |
| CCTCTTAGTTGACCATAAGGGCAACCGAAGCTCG | bin 1 |

---

// reported PBM binding z-score per item
# Test system: PPARg DBDmut:RXRa IVT, anti-PPARg (DBD mutation: PPARg1 K132A/R137A, NR concentration 270 nM, RXRa partner concentration 90 nM)
# EXPERIMENT_DESCRIPTION: PBM binding z-score (relative to random genomic background probes); higher = stronger binding; sequences stand for … in GC…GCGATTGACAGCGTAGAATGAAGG

| ORDERED_RESIDUES | PBM binding z-score |
| --- | --- |
| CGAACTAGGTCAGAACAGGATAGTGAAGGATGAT | 2.09 |
| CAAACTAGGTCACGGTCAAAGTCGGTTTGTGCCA | 4.37 |
| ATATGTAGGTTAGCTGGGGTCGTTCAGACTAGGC | 1.24 |
| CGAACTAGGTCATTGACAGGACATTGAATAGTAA | 1.94 |
| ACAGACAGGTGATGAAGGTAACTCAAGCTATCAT | -0.066 |
| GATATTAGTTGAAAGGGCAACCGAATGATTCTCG | 0.952 |
| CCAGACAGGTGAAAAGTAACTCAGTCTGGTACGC | -0.595 |
| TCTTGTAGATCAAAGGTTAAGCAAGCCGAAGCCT | 1.03 |
| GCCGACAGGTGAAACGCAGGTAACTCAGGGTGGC | -0.976 |
| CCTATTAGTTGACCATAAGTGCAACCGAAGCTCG | 1.12 |
| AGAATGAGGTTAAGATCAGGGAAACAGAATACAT | 1.43 |
| TCATATAGGTAAATGCTAGGTGAAAGTACGATCT | 1.24 |
| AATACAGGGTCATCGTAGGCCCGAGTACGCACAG | 0.916 |
| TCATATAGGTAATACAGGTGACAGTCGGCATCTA | 1.35 |
| ACTAGTTGGTCAGCTGAGGTCCCACACAATTCGG | -0.38 |
| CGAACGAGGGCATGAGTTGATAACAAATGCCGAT | 0.105 |
| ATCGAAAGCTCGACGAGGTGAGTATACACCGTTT | 0.478 |
| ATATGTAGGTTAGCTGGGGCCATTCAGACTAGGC | 1.64 |
| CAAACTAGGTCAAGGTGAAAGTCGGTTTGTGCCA | 2.55 |
| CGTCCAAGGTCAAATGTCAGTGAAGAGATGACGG | 0.495 |
| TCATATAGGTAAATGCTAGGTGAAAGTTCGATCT | 1.55 |
| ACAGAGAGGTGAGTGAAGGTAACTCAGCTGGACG | 0.674 |
| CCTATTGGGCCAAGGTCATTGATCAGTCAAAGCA | -0.54 |
| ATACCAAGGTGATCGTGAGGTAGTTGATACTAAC | 1.09 |
| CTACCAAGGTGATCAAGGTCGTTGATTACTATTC | 0.364 |
| ACTAGTTGGTCAGCAGAGGTCACACACAATTCGG | 1.09 |
